# Tested on: K4 kissing-loop RNA reporter;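 note: bound reporter read as fluorescence of individual clusters on recovered sequencing chips by microscopy, with normalized cluster intensities fitted with a binding model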
# protocol-description: apparent KD of K4 kissing-loop reporter; higher = weaker reporter binding
# stated-conditions: Eterna round: R107; input ligand: none
Entries and their measured apparent KD of K4 kissing-loop reporter follow.

item-sequence | apparent KD of K4 kissing-loop reporter
AGUGAUGUGGGAAGGAGCGCUAUAAGACUUCAGUGAUGUUGAAGUGCUGGUUUAGUGUUGUAGCAGGUAGGUCGCCUAGAUGUUA [KL-XARG-B11] | 0.275 µM
UAUAUAUGAUGUGAUACCAGUGAAAAGCCAGUGAUGUUGGAGGAGCUGGUAUAUAAAUAAGACCCUUGGCAGCACAAUCACGUAU [#01 K4 Theophylline B Exclusion] | 0.212 µM
GCAGGACGAUGAGGAGGAUGAAUUACUGAAGGAGCGCAUAUGGUUGCAGGUAGGUCGCGGUGAACAAGUAUAGUGAUGUUAUAUC [SSArgA.R] | 0.138 µM
AGACUACCACACUGUCAAUAGACAGUGGACUAGGAUAUGCUGAUAAGCAGAAGGAGUGAUGUUCCCAGGUAGUCAAUAAAAUAAU [FmnAX 13 G28+C66] | 0.225 µM
AUUCGUUUAUGUGAUACCAGACUUUGCAGUGAUGUUGCAUUAAUUAAAGAUGUUUAGUUUGUCCCUUGGCAGCACUAUUUAUUUA [JR_SSTheophyB_Sub002] | 0.0496 µM
GGCAUGCGUAGAGUGAUGUUCUAAGAUGAUACCAGUGCGGAAACGCACCCUUGGCAGCAUCUGACGAGCAUGCCGGCGAAAGCCU | 0.814 µM
UUUUAAUGCAGUGAUGUUGCUAAUAAAACAGAGGAUAUGCAUGGAAGCAGAAGGCUGAUAUAUUAUACUUUAAUAUAUUAUAUUU [JR_SSFMNA_Sub011] | 0.121 µM
